METHOD SUMMARY: Cystine reactivity assay
ASSAY CONTEXT: Table 4
Here the recorded Cystine Reactivity Assay (RT) (RFU) Mean Value is given for each entry.
ASSAY ENDPOINT: Cystine Reactivity Assay (RT) (RFU) Mean Value

COMPOUND | VAL
NCCCS | <4000 RFU
CN1CCC(S)CC1 | 4000-9000 RFU
CC(=O)NCCS | <4000 RFU
SCCN1CCCC1 | >9000 RFU
SCCc1ccncc1 | <4000 RFU
CC(S)CN (stereo not shown) | 4000-9000 RFU
SCCN1CCOCC1 | <4000 RFU

###

METHOD SUMMARY: in vitro
ASSAY CONTEXT: rat, cryopreserved rat hepatocytes

STRUCTURE STRING | microsomal CLint at 3 μM, µL/min/mg
CN1CCC(S)CC1 | 12600

###

METHOD SUMMARY: Cystine reactivity assay
ASSAY CONTEXT: Table 5; 30° C.; percentage of 3 mM cysteamine
Here the recorded Cystine Reactivity Assay (30° C.) (%) Mean Value is given for each entry.
ASSAY ENDPOINT: Cystine Reactivity Assay (30° C.) (%) Mean Value

MOLECULE | VAL
OCC1(S)CCCNC1 (stereo not drawn) | >90%
NC1CC(O)(CS)C1 (stereo not drawn) | <50%
CCN1CCCC1 | <50%
CC1(S)CCNC1 (stereo not drawn) | >90%
Cn1cc[nH]c1=S | <50%
SCC1CCNCC1 | 50-90%
CC(CS)Cc1ccccc1 (stereo not drawn) | <50%
NC1CCCC(S)C1 (stereo not drawn) | 50-90%
NCCCNCCS | >90%

###

Tested on: cystinotic human fibroblasts
METHOD SUMMARY: Cystine depletion assay
Assay type: cell-based
ASSAY CONTEXT: compound at 50 μM or 100 μM; Tables 1-3
Param threshold (80%) applies to Cystine depletion; output Fulfilled when value >= threshold, Not fulfilled when value < threshold.

COMPOUND | CAT
CC(C)(S)CN | Not fulfilled
NCCS | Fulfilled
CNCCS | Fulfilled
CC(N)CS (stereo not shown) | Fulfilled
NC1(CS)CC1 | Not fulfilled
CC(C)(N)CS | Fulfilled
SC1CCNCC1 | Not fulfilled
SCCN1CCCC1 | Fulfilled

###

METHOD SUMMARY: Rodent pharmacokinetic assay (rat)
Format: in vivo
ASSAY CONTEXT: plasma, 2 and 10 mg free base equivalents per kg, intravenous and oral gavage, read-out: Rat PK Bioavailability
ASSAY ENDPOINT: bioavailability (%)

STRUCTURE STRING | VAL
CN1CCC(S)CC1 | 34

###

METHOD SUMMARY: Cystine reactivity assay
ASSAY CONTEXT: Table 4; 30° C.; percentage of 3 mM cysteamine
Description: Cystine reactivity was assessed by incubating 3 mM test compound with 100 nM BODIPY® FL L-Cystine (Life Tech.) at 30° C., pH 7.4 in phosphate buffer. […] Compound cystine reactivity was expressed as a percentage of that of 3 mM cysteamine. Under resting conditions, the inherent fluorescence of BODIPY® FL L-cystine was very low due to the spatial proximity of the two BODIPY molecules causing quenching. […]
Here the recorded Cystine Reactivity Assay (30° C.) (%) Mean Value is given for each entry.
ASSAY ENDPOINT: Cystine Reactivity Assay (30° C.) (%) Mean Value

MOLECULE | VAL
CC(C)N1CCC(S)CC1 [Compound 42458] | >90%
SC1CC2CCC(C1)N2 (stereo not shown) [Compound 42494] | 59-90%
CC1(S)CCCNC1 (stereo not shown) [Compound 42388] | >90%
NC1CC(S)C1 (stereo not shown) [Compound 42209] | 59-90%
N[C@H]1C[C@@H](S)C1 [Compound 42457] | 59-90%
SC1CCNCC1 [Compound 41188] | 59-90%
S[C@@H]1CCCNC1 [Compound 42248] | >90%
CN1CCC(S)CC1 [Compound 17521] | 50-90%
Sc1ccncc1 [Compound 42338] | <50%
SCc1ccccn1 [Compound 42213] | >90%
N[C@H]1CC[C@H](S)CC1 [Compound 42492] | <50%
N[C@H]1CCCC[C@@H]1S [Compound 42693] | >90%
N[C@@H]1CCCC[C@@H]1S [Compound 42610] | >90%

###

Here the recorded Cystine Reactivity Assay (30° C.) (%) Mean Value is given for each entry.
METHOD SUMMARY: Cystine reactivity assay
ASSAY CONTEXT: Table 4; 30° C.; percentage of 3 mM cysteamine
ASSAY ENDPOINT: Cystine Reactivity Assay (30° C.) (%) Mean Value

COMPOUND | VAL
C[C@H]1CC[C@H](S)CN1 [Compound 42613] | >90%
SC[C@@H]1CCCN1 (stereo in doubt) [Compound 42210] | >90%
SC1CCCCNC1 (centres unmarked) [Compound 42345] | >90%
C[C@@H]1CNCC[C@@H]1S [Compound 42615] | <50%
SC[C@H]1CCCN1 [Compound 42211] | >90%
N[C@H]1C[C@H](S)C1 [Compound 42460] | 59-90%
NC1CCC(S)C1 (centres unmarked) [Compound 42691] | 50-90%
CC1(S)CCNCC1 [Compound 42341] | <50%

###

METHOD SUMMARY: Cystine reactivity assay
ASSAY CONTEXT: Table 4; 30° C.; percentage of 3 mM cysteamine
ASSAY ENDPOINT: Cystine Reactivity Assay (30° C.) (%) Mean Value

COMPOUND | VAL
S[C@H]1CCCNC1 | >90%
SC12CCN(CC1)CC2 | 50-90%
CCN1CCC(S)CC1 | >90%
S[C@@H]1CCNC1 | 59-90%
SC1CC2(CNC2)C1 | >90%
SCC1CCN1 (stereo not shown) | <50%
N[C@H]1CC[C@@H](S)CC1 | <50%
CCOC(=O)C1(S)CCCNC1 (stereo not shown) | 50-90%
S[C@H]1CCNC1 | 59-90%
N[C@@H]1CCCC[C@H]1S | >90%
FC1(F)CCNC[C@@H]1S | <50%
NCCS | >90%
SC1CCCNC1 (stereo not shown) | >90%

###

METHOD SUMMARY: in vivo
ASSAY CONTEXT: mouse, 10 mg

STRUCTURE STRING | bioavailability / %
SCCN1CCCC1 | 33

###

METHOD SUMMARY: Cystine reactivity assay
ASSAY CONTEXT: Table 4
ASSAY ENDPOINT: Cystine Reactivity Assay (RT) (RFU) Mean Value

MOLECULE | VAL
CC(N)CS (stereo not drawn) [Compound 17515] | 4000-9000 RFU
CC(C)(S)CN [Compound 18782] | <4000 RFU
NCCS [Cysteamine] | 4000-9000 RFU

###

METHOD SUMMARY: Rodent pharmacokinetic assay (mouse)
ASSAY CONTEXT: plasma, 10 mg
ASSAY ENDPOINT: half-life (h)

STRUCTURE STRING | VAL
CN1CCC(S)CC1 | 3.9
SC1CCNCC1 | 7.1

###

Test system: cystinotic human fibroblasts
METHOD SUMMARY: Cystine depletion assay
Format: cell-based
ASSAY CONTEXT: Homo sapiens, Fibroblast, 1 h; Table 5; relative to cystine depletion by cysteamine (100%) at a similar concentration; read-out: Cystine Depletion (%) Mean Value
Just a reminder that ties go to FALSE: only Emax strictly below 20% counts as TRUE.

MOLECULE | TARGET OR TEST SYSTEM | CAT
CC1(S)CCCNC1 (centres unmarked) [Compound 42388] | cystinotic human fibroblasts | FALSE
FC1(F)CN[C@@H](CS)C1 [Compound 149607] | cystinotic human fibroblasts | TRUE
SCC1CCNCC1 [Compound 145586] | cystinotic human fibroblasts | FALSE
Nc1nc2[nH]cnc2c(=S)[nH]1 [Compound 1141] | cystinotic human fibroblasts | TRUE
CSC1(C)CCNCC1 [Compound 145691] | cystinotic human fibroblasts | TRUE
CC(C)(C)N1CCC(S)CC1 [Compound 145584] | cystinotic human fibroblasts | TRUE
CN[C@H]1C[C@H](S)C1 [Compound 149609] | cystinotic human fibroblasts | FALSE
SC[C@@H]1CCCN1 (stereo in doubt) [Compound 42210] | cystinotic human fibroblasts | FALSE
NC1CC(O)(CS)C1 (centres unmarked) [Compound 149610] | cystinotic human fibroblasts | TRUE
N[C@H]1C[C@@H](CS)C1 [Compound 145587] | cystinotic human fibroblasts | TRUE
CS(=O)(=O)N1CCNC(CS)C1 (centres unmarked) [Compound 145694] | cystinotic human fibroblasts | TRUE

###

METHOD SUMMARY: Rodent pharmacokinetic assay (mouse)
ASSAY CONTEXT: plasma, oral, 10 mg

STRUCTURE STRING | bioavailability (%)
SC1CCNCC1 | 74
CN1CCC(S)CC1 | 38
